- procedure-text: Pharmacokinetic analysis of RA in an SH-SY5Y xenograft model (retinoid concentrations in plasma, liver, tumour by LC/MS)
- Type: in vivo, CD-1 nude mice
- experimental-context: female, CD-1 nu/nu (athymic nude), mouse, tumour (SH-SY5Y xenograft), po, 100 mg kg^−1, after 13cisRA 100 mg kg^−1 oral; SH-SY5Y tumour; 6 h; label = retinoid measured; read-out: Tumour concentration, 6 h
quantity-name: concentration at 6 h (ng/g)

(I) CC1=C(/C=C/C(C)=C/C=C/C(C)=C/C(=O)O)C(C)(C)CCC1 [ATRA, all-trans-retinoic acid]
(II) CC1=C(/C=C/C(C)=C/C=C/C(C)=C\C(=O)O)C(C)(C)CCC1 [13cisRA, 13-cis-retinoic acid]
Request: Please state the entry with greater concentration at 6 h among I and II . Select an item and report its label.
Result: II

---

- procedure-text: Pharmacokinetic analysis of RA in an SH-SY5Y xenograft model (retinoid concentrations in plasma, liver, tumour by LC/MS)
- Format: in vivo, CD-1 nude mice
- experimental-context: female, CD-1 nu/nu (athymic nude), mouse, plasma, po, 100 mg kg^−1, after 13cisRA 100 mg kg^−1 oral; plasma; 2 h; label = retinoid measured; read-out: Plasma concentration, 2 h
quantity-name: concentration at 2 h (µM)

(I) CC1=C(/C=C/C(C)=C/C=C/C(C)=C/C(=O)O)C(C)(C)CCC1 [ATRA, all-trans-retinoic acid]
(II) CC1=C(/C=C/C(C)=C/C=C/C(C)=C\C(=O)O)C(C)(C)CCC1 [13cisRA, 13-cis-retinoic acid]
Request: Would you kindly point out which of I and II has the smaller concentration at 2 h figure? Select an item and report its label.
Result: I
(I: 0.57 µM, II: 19.1 µM)

---

- procedure-text: Pharmacokinetic analysis of RA in an SH-SY5Y xenograft model (retinoid concentrations in plasma, liver, tumour by LC/MS)
- Assay type: in vivo, CD-1 nude mice
- experimental-context: after ATRA 100 mg kg^−1 oral; plasma; 6 h; label = retinoid measured
quantity-name: % Total retinoids, plasma, 6 h (%)

(I) CC1=C(/C=C/C(C)=C/C=C/C(C)=C/C(=O)O)C(C)(C)CCC1 [ATRA, all-trans-retinoic acid]
(II) CC1=C(/C=C/C(C)=C/C=C/C(C)=C\C(=O)O)C(C)(C)CCC1 [13cisRA, 13-cis-retinoic acid]
(III) CC1=C(/C=C/C(C)=C/C=C/C(C)=C/C(=O)O)C(C)(C)CCC1=O [AT-4-oxoRA, all-trans-4-oxo-RA]
Request: Kindly provide a descending ordering of the above compounds based on their % Total retinoids, plasma, 6 h. Answer format: the labels, ordered as requested.
Result: I, III, II
(I: 70%, III: 22%, II: 8%)

---

- procedure-text: Pharmacokinetic analysis of RA in an SH-SY5Y xenograft model (retinoid concentrations in plasma, liver, tumour by LC/MS)
- Format: in vivo, CD-1 nude mice
- experimental-context: after 13cisRA 100 mg kg^−1 oral; liver; 0.5 h; label = retinoid measured
quantity-name: % Total retinoids, liver, 0.5 h (%)

(P) CC1=C(/C=C/C(C)=C/C=C/C(C)=C/C(=O)O)C(C)(C)CCC1 [ATRA, all-trans-retinoic acid]
(Q) CC1=C(/C=C/C(C)=C/C=C/C(C)=C\C(=O)O)C(C)(C)CCC1=O [13cis-4-oxoRA, 13-cis-4-oxo-RA]
(R) CC1=C(/C=C/C(C)=C/C=C/C(C)=C/C(=O)O)C(C)(C)CCC1=O [AT-4-oxoRA, all-trans-4-oxo-RA]
(S) CC1=C(/C=C/C(C)=C/C=C/C(C)=C\C(=O)O)C(C)(C)CCC1 [13cisRA, 13-cis-retinoic acid]
Request: Kindly provide a descending ordering of the above molecules based on their % Total retinoids, liver, 0.5 h. Answer format: the labels, ordered as requested.
Result: S, Q, R, P
(S: 75%, Q: 18%, R: 5%, P: 2%)
